Measured values drawn from ChEMBL document CHEMBL3525910 for this set.

# assay-overview: AUC (0 to last) in wild-type mouse at 30 mg/kg, po
# Assay type: ADME, organism-based
# Set-up: time 0 - last, dose 30 mg/kg, route oral
# cond: plasma
value-type: AUC(0-t) (µg·h/mL)
Your answer should be a plain number; it is taken to be in µg·h/mL.

## Input What value of AUC(0-t) has been reported for the following molecule? N[C@H](CO)C(=O)O [(D)-SERINE]
## Output 40.6

###

# assay-overview: Cmax in wild-type mouse at 30 mg/kg, po
# Type: ADME, organism-based
# Set-up: dose 30 mg/kg, route oral
# cond: in vivo
value-type: Cmax
Numeric answer plus unit only.

## Input Cmax lookup needed for N[C@H](CO)C(=O)O , thanks.
## Output 19600 ng/mL

###

# assay-overview: Tmax in wild-type mouse at 30 mg/kg, po
# Assay type: ADME, organism-based
# Set-up: dose 30 mg/kg, route oral
# cond: in vivo
value-type: Tmax (min)
State just the number; it will be interpreted in min.

## Input # query: Tmax of entry N[C@H](CO)C(=O)O
## Output 42

###

# assay-overview: Elimination half life in wild-type mouse at 30 mg/kg, po
# Type: ADME, organism-based
# Parameters: dose 30 mg/kg, route oral
# cond: in vivo, read-out: beta t1/2 (converted)
value-type: half-life (h)
Numeric answer only, unit h assumed.

## Input For the compound shown here, N[C@H](CO)C(=O)O [(D)-SERINE] , give the reported half-life.
## Output 1.2

###

# assay-overview: Cmax in DAAO knockout mouse at 30 mg/kg, po
# Type: ADME, organism-based
# Set-up: dose 30 mg/kg, route oral
# cond: in vivo
value-type: Cmax (ng/mL)
Note: unit ng/mL is implicit; provide only the numeric part.

## Input So what's the measured Cmax for this one? N[C@H](CO)C(=O)O
## Output 27800

###

# assay-overview: AUC (0 to infinity) in wild-type mouse at 30 mg/kg, po in presence of CBIO
# Type: ADME, organism-based
# Design: time infinity, dose 30 mg/kg, route oral
# cond: plasma
value-type: AUC(0-inf) (ng·h/mL)
The reply should be a number in ng·h/mL, with the unit left off.

## Input Which AUC(0-inf) reading was recorded for the molecule N[C@H](CO)C(=O)O ?
## Output 80900

###

# assay-overview: Tmax in DAAO knockout mouse at 30 mg/kg, po
# Format: ADME, organism-based
# Design: dose 30 mg/kg, route oral
# cond: in vivo
value-type: Tmax (h)
Quick note: give the figure in h, leave out the unit.

## Input Record request: Tmax value, item N[C@H](CO)C(=O)O
## Output 2.7
